target: Human Recombinant Matriptase 2 (Homo sapiens); construct: purchased Enzo Life Sciences (an in-house preparation was also used) ALX-201-752-1; assay: Matriptase 2 fluorescence based inhibition assay, Method A (100 mM TRIS pH 9, 1 mg/mL BSA); format: biochemical; conditions: 1 uM; Assay Used A; read-out: Mar-2 % inhibition at 1 uM
Sequence (Q8IU80 whole entry): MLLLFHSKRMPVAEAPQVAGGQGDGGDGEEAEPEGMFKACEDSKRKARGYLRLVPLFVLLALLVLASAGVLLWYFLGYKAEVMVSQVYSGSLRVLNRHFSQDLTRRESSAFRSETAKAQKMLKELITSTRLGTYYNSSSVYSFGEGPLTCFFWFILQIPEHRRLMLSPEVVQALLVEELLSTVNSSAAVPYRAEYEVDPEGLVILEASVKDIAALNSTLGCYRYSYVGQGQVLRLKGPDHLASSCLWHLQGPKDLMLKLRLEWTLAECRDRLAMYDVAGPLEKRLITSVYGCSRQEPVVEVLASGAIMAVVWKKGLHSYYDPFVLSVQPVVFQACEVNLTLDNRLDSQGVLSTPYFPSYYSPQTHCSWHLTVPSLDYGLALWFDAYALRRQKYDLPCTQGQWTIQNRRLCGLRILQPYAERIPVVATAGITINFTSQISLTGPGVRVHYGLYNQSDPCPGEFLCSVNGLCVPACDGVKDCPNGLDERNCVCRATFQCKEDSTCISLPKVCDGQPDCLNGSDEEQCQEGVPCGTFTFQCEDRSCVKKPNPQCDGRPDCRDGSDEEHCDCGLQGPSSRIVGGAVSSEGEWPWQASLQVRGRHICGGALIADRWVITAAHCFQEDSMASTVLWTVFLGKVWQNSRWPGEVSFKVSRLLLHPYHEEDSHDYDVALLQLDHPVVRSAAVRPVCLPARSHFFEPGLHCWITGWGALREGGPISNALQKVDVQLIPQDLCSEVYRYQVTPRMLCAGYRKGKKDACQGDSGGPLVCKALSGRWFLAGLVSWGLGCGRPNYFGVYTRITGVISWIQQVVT
Give measured inhibition at 1 µM for each item. Keep answers brief.

[[record]]
compound = "CCOC(=O)c1ccc(Cn2c(C(=O)N[C@H]3CC[C@H](N)CC3)cc3ccc(C(=N)N)cc32)cc1 [Compound I-22]"
reported_measurement = "25 to 50%"

[[record]]
compound = "N=C(N)c1ccc2cc(C(=O)Nc3cccc(C(N)=O)c3)n(CCc3ccccc3)c2c1 [Compound I-26]"
reported_measurement = "0 to 25%"

[[record]]
compound = "CN(C)CC(=O)O/N=C(\\N)c1ccc2cc(C(=O)Nc3cccc(N4CCCC4)c3)n(Cc3ccc(C(N)=O)cc3)c2c1 [Compound I-135]"
reported_measurement = "0 to 25%"

[[record]]
compound = "N=C(N)c1ccc2cc(C(=O)Nc3cccnc3)n(Cc3ccc(C(N)=O)cc3)c2c1 [Compound I-170]"
reported_measurement = "0 to 25%"

[[record]]
compound = "N=C(N)c1ccc2cc(C(=O)N[C@H]3CC[C@H](N)CC3)n(CS(=O)(=O)c3ccccc3)c2c1 [Compound I-39]"
reported_measurement = "25 to 50%"

[[record]]
compound = "N=C(N)c1ccc2cc(C(=O)Nc3ccc(N4CCCC4)cc3)n(CCS(=O)(=O)c3ccccc3)c2c1 [Compound I-44]"
reported_measurement = "0 to 25%"

[[record]]
compound = "N=C(N)c1ccc2cc(C(=O)Nc3ccc(C(=O)N4CC[C@H](F)C4)cc3)n(Cc3ccc(C(N)=O)cc3)c2c1 [Compound I-106]"
reported_measurement = "0 to 25%"

[[record]]
compound = "N=C(N)c1ccc2cc(C(=O)Nc3ccc(N4CCCC4)nc3)n(Cc3ccc(C(N)=O)cc3)c2c1 [Compound I-177]"
reported_measurement = "0 to 25%"

[[record]]
compound = "N=C(N)c1ccc2cc(C(=O)N[C@H]3CC[C@H](N)CC3)n(Cc3ccc(C(=O)O)cc3)c2c1 [Compound I-20]"
reported_measurement = "25 to 50%"

[[record]]
compound = "N=C(N)c1ccc2cc(C(=O)Nc3ccc(C(F)(F)F)cc3)n(Cc3ccc(C(N)=O)cc3)c2c1 [Compound I-61]"
reported_measurement = "0 to 25%"


Hi team, please reply with inhibition at 1 µM for each item in this list.
1. CC(C)[C@H](NC(=O)c1cc2ccc(C(=N)N)cc2n1Cc1ccc(C(N)=O)cc1)c1ccccc1 [Compound I-82]
2. CS(=O)(=O)c1cccc(NC(=O)c2cc3ccc(C(=N)N)cc3n2Cc2ccc(C(N)=O)cc2)c1 [Compound I-150]

1. 0 to 25%
2. 0 to 25%

Hi team, please reply with inhibition at 1 µM for each item in this list.
1. N=C(N)c1ccc2c(N)c(C(=O)NCC3CCCCC3)n(CCS(=O)(=O)c3ccccc3)c2c1 [Compound I-58]
2. CN1CCC(N(C)C(=O)c2cc3ccc(C(=N)N)cc3n2Cc2ccc(C(N)=O)cc2)C1 (stereo not drawn) [Compound I-103]

0 to 25%
0 to 25%

# lookup: inhibition at 1 µM of N=C(N)c1ccc2cc(C(=O)Nc3ccc(N)nc3)n(Cc3ccc(C(F)(F)F)cc3)c2c1 [Compound I-1]
0 to 25%
